Let's look at some binders and their measured koff.
- TARGET OR SYSTEM: T1, cynomolgus galectin-10-His, WGS isoform (cynomolgus)
- T1 construct: also called cynoGal10-WGS; not shown: His tag
- T1 chain: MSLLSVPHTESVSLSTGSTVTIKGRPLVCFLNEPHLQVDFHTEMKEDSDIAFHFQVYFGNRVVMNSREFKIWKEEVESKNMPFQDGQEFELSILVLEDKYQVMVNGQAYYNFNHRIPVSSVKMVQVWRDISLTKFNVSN
- METHOD SUMMARY: SPR Biacore T3000, mouse IgG1 captured
// return numeric value only (unit: s⁻¹, not printed)

{"columns": ["BINDER", "RECORDED RESULT"],
 "data": [
  ["10D02 mouse IgG1 (antibody, V domains shown, VH and VL cloned in frame with mouse IgG1 constant domains; also called 10D02 mIgG1) VH: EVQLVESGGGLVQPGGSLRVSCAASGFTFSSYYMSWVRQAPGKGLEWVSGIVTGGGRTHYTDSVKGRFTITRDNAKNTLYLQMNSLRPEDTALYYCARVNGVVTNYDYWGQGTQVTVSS VL: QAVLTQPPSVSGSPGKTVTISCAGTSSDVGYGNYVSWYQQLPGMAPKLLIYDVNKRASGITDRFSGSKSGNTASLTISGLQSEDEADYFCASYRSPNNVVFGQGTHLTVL", 0.000912],
  ["11F02 mouse IgG1 (antibody, V domains shown, VH and VL cloned in frame with mouse IgG1 constant domains; also called 11F02 mIgG1) VH: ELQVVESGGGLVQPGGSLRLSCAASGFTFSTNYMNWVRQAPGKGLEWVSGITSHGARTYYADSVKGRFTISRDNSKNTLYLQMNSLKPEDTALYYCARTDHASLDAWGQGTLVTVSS VL: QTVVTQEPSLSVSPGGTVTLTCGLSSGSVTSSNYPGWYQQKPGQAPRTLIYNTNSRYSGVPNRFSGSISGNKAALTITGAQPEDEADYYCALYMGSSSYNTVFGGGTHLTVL", 0.00198],
  ["8H11 mouse IgG1 (antibody, V domains shown, VH and VL cloned in frame with mouse IgG1 constant domains; also called 8H11 mIgG1) VH: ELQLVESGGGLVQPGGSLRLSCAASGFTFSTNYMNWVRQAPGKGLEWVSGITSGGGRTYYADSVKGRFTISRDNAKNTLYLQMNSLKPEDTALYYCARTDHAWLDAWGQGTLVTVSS VL: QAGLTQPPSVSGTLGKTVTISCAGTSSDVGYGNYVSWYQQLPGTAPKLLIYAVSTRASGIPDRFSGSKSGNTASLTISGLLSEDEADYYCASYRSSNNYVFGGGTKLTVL", 0.000754]
]}

Then this binder:
State its koff: 7B07 mouse IgG1 (antibody, V domains shown, VH and VL cloned in frame with mouse IgG1 constant domains; also called 7B07 mIgG1) VH: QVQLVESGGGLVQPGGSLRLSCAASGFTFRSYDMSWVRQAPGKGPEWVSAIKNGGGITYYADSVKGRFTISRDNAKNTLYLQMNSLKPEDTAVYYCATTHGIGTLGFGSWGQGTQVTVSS VL: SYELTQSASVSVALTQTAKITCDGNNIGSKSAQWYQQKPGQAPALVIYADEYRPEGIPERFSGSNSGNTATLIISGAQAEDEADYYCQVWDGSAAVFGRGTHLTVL
0.066
